tested.system: Mitogen-activated protein kinase 11 (Homo sapiens)
Sequence (Q15759 whole entry): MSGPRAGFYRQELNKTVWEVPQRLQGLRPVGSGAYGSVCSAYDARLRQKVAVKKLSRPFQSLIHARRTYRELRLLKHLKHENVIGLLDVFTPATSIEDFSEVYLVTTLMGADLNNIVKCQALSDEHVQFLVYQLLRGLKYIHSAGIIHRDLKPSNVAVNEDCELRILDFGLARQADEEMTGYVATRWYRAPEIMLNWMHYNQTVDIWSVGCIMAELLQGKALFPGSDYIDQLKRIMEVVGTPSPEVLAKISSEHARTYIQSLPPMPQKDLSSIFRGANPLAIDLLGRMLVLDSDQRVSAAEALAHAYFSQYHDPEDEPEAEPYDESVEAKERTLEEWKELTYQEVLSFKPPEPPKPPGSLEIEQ
protocol.details: Inhibition of p38beta
experimental.endpoint: IC50

Recorded IC50 of COc1cc2ncn(-c3cc(OCc4ccccc4S(C)(=O)=O)c(C#N)s3)c2cc1OC [GSK-319347A] , please.
> 15.8 µM

----------
Protein target, amino acids: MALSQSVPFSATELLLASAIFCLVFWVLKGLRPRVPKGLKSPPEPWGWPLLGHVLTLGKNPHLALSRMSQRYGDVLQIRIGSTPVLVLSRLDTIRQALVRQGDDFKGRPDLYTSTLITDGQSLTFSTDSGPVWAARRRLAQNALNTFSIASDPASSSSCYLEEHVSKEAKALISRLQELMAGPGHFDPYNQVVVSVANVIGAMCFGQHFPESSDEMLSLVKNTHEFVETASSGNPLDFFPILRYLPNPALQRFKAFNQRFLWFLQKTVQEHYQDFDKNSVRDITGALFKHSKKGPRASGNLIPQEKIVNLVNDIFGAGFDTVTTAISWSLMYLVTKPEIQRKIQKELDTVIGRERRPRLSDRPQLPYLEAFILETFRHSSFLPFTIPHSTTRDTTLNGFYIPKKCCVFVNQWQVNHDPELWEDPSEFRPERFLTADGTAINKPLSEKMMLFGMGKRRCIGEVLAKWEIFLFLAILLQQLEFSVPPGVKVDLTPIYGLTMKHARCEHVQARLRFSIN
experimental.endpoint: IC50

Using the record for COc1cc2ncn(-c3cc(OCc4ccccc4S(C)(=O)=O)c(C#N)s3)c2cc1OC [GSK-319347A] , report its IC50.
> 50.1 µM

----------
tested.system: Inhibitor of nuclear factor kappa-B kinase subunit epsilon (Homo sapiens, UniProt Q14164)
Sequence (Q14164 whole entry): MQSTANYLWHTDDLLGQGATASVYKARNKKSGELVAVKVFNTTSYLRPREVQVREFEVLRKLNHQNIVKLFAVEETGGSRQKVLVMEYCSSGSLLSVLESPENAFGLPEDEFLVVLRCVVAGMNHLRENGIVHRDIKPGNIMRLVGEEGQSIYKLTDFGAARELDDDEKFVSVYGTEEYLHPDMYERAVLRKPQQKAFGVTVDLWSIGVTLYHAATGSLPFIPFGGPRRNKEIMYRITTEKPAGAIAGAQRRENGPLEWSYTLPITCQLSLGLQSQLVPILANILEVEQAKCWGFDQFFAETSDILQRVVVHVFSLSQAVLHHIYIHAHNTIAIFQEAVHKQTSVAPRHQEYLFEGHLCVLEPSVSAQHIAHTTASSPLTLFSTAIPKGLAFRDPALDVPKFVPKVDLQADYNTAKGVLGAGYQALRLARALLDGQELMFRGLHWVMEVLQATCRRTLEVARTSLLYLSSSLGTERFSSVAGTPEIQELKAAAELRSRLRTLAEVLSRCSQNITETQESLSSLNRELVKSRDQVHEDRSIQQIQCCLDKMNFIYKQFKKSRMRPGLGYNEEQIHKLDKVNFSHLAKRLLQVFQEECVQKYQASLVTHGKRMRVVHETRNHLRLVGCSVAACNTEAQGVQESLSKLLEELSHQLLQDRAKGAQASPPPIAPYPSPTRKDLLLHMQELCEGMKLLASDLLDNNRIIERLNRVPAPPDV
protocol.details: Inhibition of human recombinant IKKepsilon by TR-FRET assay
pIC50: −log10 of the molar value.
Criterion: pIC50 meeting or surpassing 5. Met: YES. Not met: NO.

The following compounds have reported results that may help.
compound	qualitative.label
N#Cc1sc(-n2cnc3ccccc32)cc1OCc1ccccc1	YES
COc1cc2ncn(-c3cc(O[C@H](C)c4ccccc4Cl)c(C(N)=O)s3)c2cc1OC [GSK-237701A]	NO
COc1cc2ncn(-c3cc(O[C@H](C)c4ccccc4C(F)(F)F)c(C#N)s3)c2cc1OC	YES
COc1cc2ncn(-c3cc(OCc4ccc(S(C)(=O)=O)cc4)c(C#N)s3)c2cc1OC	YES

Please look at the following compound next.
Given COc1cc2c(cc1OCCCO)ncn2-c1cc(OCc2ccccc2C(F)(F)F)c(C#N)s1 , state whether its pIC50 is at least 5.
YES

----------
tested.system: Receptor tyrosine-protein kinase erbB-2 (Homo sapiens, UniProt P04626)
Sequence (P04626 whole entry): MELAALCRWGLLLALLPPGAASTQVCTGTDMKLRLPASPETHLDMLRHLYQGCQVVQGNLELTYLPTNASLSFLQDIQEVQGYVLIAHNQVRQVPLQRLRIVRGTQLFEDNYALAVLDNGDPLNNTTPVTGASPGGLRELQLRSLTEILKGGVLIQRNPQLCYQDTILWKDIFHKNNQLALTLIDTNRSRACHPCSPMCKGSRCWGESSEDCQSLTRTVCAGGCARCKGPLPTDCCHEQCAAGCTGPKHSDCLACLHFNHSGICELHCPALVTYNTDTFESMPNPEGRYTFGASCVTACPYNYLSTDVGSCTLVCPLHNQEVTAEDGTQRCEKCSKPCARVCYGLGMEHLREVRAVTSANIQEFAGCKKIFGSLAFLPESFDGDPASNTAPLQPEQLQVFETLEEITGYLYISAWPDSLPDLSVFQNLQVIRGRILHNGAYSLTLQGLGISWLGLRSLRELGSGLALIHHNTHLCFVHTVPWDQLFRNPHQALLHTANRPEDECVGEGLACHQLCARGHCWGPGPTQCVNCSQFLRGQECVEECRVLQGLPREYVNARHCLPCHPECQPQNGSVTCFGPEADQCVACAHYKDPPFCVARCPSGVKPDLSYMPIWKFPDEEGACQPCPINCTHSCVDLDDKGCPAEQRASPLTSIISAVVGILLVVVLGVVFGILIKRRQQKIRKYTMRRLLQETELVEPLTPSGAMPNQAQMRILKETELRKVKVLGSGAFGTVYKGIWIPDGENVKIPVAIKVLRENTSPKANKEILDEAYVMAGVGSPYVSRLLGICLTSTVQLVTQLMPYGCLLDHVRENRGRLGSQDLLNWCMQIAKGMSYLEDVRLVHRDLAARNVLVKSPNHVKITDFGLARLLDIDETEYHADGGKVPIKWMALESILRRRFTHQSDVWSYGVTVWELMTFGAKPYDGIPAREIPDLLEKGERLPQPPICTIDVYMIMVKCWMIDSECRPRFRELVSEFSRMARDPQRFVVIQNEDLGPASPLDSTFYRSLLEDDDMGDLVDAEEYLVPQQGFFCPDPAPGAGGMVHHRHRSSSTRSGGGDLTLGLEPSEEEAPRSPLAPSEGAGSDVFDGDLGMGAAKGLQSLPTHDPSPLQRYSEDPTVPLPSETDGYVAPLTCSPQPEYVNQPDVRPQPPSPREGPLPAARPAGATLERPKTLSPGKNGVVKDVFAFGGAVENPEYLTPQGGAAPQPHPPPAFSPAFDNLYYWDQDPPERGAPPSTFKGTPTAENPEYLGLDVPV
protocol.details: Inhibition of ErB2
experimental.endpoint: IC50

Dear colleague, I am looking for the recorded IC50 of the following compound: COc1cc2ncn(-c3cc(OCc4ccccc4S(C)(=O)=O)c(C#N)s3)c2cc1OC [GSK-319347A]
> 10 µM
